tested on: 3rd-4th instar Ae. aegypti larvae; assay: Larvicidal efficacy of C14 porphyrin (LC50); type: in vivo; details: 12 light + 12 dark hours; 6 mg PFP
OBSERVED_PROPERTY: LC50
Please report the result as a number followed by the unit.

Ask: Bench note: what LC50 did "CCCCCCCCCCCCCC[n+]1ccc(-c2c3nc(c(-c4cc[n+](C)cc4)c4ccc([nH]4)c(-c4cc[n+](C)cc4)c4nc(c(-c5cc[n+](C)cc5)c5ccc2[nH]5)C=C4)C=C3)cc1.Cc1ccc(S(=O)(=O)[O-])cc1.Cc1ccc(S(=O)(=O)[O-])cc1.Cc1ccc(S(=O)(=O)[O-])cc1.Cc1ccc(S(=O)(=O)[O-])cc1" show?
Reply: 110 nM

###

system: 3rd-4th instar Ae. aegypti larvae; assay: Larvicidal efficacy of C14 porphyrin (LC50); format: in vivo; details: 6 hours of irradiation, 1.0-4.0 mW/cm^2; 6 mg PFP
OBSERVED_PROPERTY: LC50
Please report the result as a number followed by the unit.

Ask: Bench note: what LC50 did CCCCCCCCCCCCCC[n+]1ccc(-c2c3nc(c(-c4cc[n+](C)cc4)c4ccc([nH]4)c(-c4cc[n+](C)cc4)c4nc(c(-c5cc[n+](C)cc5)c5ccc2[nH]5)C=C4)C=C3)cc1.Cc1ccc(S(=O)(=O)[O-])cc1.Cc1ccc(S(=O)(=O)[O-])cc1.Cc1ccc(S(=O)(=O)[O-])cc1.Cc1ccc(S(=O)(=O)[O-])cc1 [C14] show?
Reply: 250 nM

###

System: 3rd-4th instar Ae. aegypti larvae
Test: Larvicidal efficacy of C14 porphyrin (LC50)
Assay type: in vivo
Conditions: 1 hour of irradiation, 1.0-4.0 mW/cm^2; 6 mg PFP
Method: Irradiation of mosquito larvae were performed by employing full spectrum visible light (400-800 nm) at a fluence rate of 1.0 to 4.0 mW/cm^2 using low-pressure mercury discharge fluorescent tubes TL-D Standard Colours (TL-D 58W/33-640 1SL, PHILIPS, EC). The intensity of the incident radiation was measured by an ILT1400A radiometer/photometer, equipped with a SED623/HNK15 multi-junction thermopile detector (International Light Technologies Inc., MA, USA). […]
OBSERVED_PROPERTY: LC50
Please report the result as a number followed by the unit.

Ask: Bench note: what LC50 did CCCCCCCCCCCCCC[n+]1ccc(-c2c3nc(c(-c4cc[n+](C)cc4)c4ccc([nH]4)c(-c4cc[n+](C)cc4)c4nc(c(-c5cc[n+](C)cc5)c5ccc2[nH]5)C=C4)C=C3)cc1.Cc1ccc(S(=O)(=O)[O-])cc1.Cc1ccc(S(=O)(=O)[O-])cc1.Cc1ccc(S(=O)(=O)[O-])cc1.Cc1ccc(S(=O)(=O)[O-])cc1 [C14] show?
Reply: 0.46 µM

###

test system: 3rd-4th instar Ae. aegypti larvae; assay: Larvicidal efficacy of C14 porphyrin (LC50); format: in vivo; details: 12 hours of irradiation, 1.0-4.0 mW/cm^2; 6 mg PFP
OBSERVED_PROPERTY: LC50 (nM)
Numbers only, in nM.

Ask: Entry CCCCCCCCCCCCCC[n+]1ccc(-c2c3nc(c(-c4cc[n+](C)cc4)c4ccc([nH]4)c(-c4cc[n+](C)cc4)c4nc(c(-c5cc[n+](C)cc5)c5ccc2[nH]5)C=C4)C=C3)cc1.Cc1ccc(S(=O)(=O)[O-])cc1.Cc1ccc(S(=O)(=O)[O-])cc1.Cc1ccc(S(=O)(=O)[O-])cc1.Cc1ccc(S(=O)(=O)[O-])cc1 [C14] , system 3rd-4th instar Ae. aegypti larvae: what LC50 was measured?
Reply: 220
